# MEASUREMENT_TARGET: Substance-P receptor (Homo sapiens)
# Sequence (P25103 whole entry): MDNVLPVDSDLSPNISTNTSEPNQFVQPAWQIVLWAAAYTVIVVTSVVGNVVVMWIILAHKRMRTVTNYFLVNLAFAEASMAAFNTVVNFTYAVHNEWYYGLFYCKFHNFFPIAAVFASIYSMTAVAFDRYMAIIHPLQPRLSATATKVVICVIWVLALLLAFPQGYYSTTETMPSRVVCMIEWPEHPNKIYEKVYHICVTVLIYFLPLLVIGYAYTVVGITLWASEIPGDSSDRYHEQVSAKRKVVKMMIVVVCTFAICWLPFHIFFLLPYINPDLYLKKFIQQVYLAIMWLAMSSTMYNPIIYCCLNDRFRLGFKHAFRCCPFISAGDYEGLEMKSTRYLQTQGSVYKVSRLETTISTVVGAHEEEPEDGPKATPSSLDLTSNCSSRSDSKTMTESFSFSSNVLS
OBSERVABLE: Ki

input: Requested field: Ki. Item: Cc1ccc(Cn2nc(C(=O)NC3C(C)(C)C4CC[C@@]3(C)C4)cc2-c2ccc(Cl)c(C)c2)cc1 (stereo partly specified)
output: > 10 µM

====

# MEASUREMENT_TARGET: Neurotensin/neuromedin N (Human)
pKi: −log10 of the molar value.
OBSERVABLE: pKi

input: # query: pKi | item Cc1ccc(Cn2nc(C(=O)NC3C(C)(C)C4CC[C@@]3(C)C4)cc2-c2ccc(Cl)c(C)c2)cc1 (stereo partly specified) | system: Neurotensin/neuromedin N (Human)
output: < 5.00
